PROTOCOL: qHTS assay to identify small molecule antagonists of the estrogen related receptor signaling pathway with the pleiotropic PPARgamma coactivator (PGC) from Tox21 10K library - cell viability counter screen (AID 1224840); also: nearly all actives have a fitted effect of over 40% in size
MEASUREMENT CONDITIONS: PGC/ERR reporter cells viability, CellTiter-Fluor, 17.5 h; series mostly up to 92.4 µM
Records with an inconclusive call do not appear. Active and inactive are the calls of the source. Calls follow the shape of the dose curve; as a rule, active = well fitted cell-killing curve with a large enough effect in the repeat runs (not every such curve was filed as active); inconclusive = weak or mixed curves, or effect the other way; inactive = no such curve, though single readings can be large or run the other way.
Labels: active, inactive

>  <LINE NOTATION>
CC(=O)OCC(=O)[C@@]12OC(C)(C)O[C@@H]1C[C@H]1[C@@H]3C[C@H](F)C4=CC(=O)C=C[C@]4(C)[C@@]3(F)[C@@H](O)C[C@@]12C

>  <CLASS NAME>
inactive

$$$$
>  <LINE NOTATION>
O=C(CCCN1CCC(O)(c2ccc(Br)cc2)CC1)c1ccc(F)cc1

>  <CLASS NAME>
inactive

$$$$
>  <LINE NOTATION>
Cc1cc(S(=O)(=O)O)ccc1N=Nc1c(O)ccc2ccccc12

>  <CLASS NAME>
active

$$$$
>  <LINE NOTATION>
CCCCC/C(=C\c1ccccc1)CO

>  <CLASS NAME>
inactive

$$$$
>  <LINE NOTATION>
CCOC(=O)[C@@H](C)Oc1ccc(Oc2nc3ccc(Cl)cc3o2)cc1

>  <CLASS NAME>
inactive

$$$$
>  <LINE NOTATION>
CC(C)=CC=O

>  <CLASS NAME>
inactive

$$$$
>  <LINE NOTATION>
CCCCCCCCSCCO

>  <CLASS NAME>
inactive

$$$$
>  <LINE NOTATION>
COc1cc2[nH]c(=O)[nH]c(=O)c2cc1OC

>  <CLASS NAME>
inactive

$$$$
>  <LINE NOTATION>
C/C(=N/NC(=O)c1ccncc1)C(=O)O

>  <CLASS NAME>
inactive

$$$$
>  <LINE NOTATION>
C=CCOC(=O)/C=C\C(=O)OCC=C

>  <CLASS NAME>
inactive

$$$$
>  <LINE NOTATION>
COC(OC)(C(=O)c1ccccc1)c1ccccc1

>  <CLASS NAME>
inactive

$$$$
>  <LINE NOTATION>
CCCCCCCCCOC(C)=O

>  <CLASS NAME>
inactive

$$$$
>  <LINE NOTATION>
CCCCCCCCCCCCCCC[C@H](O)[C@@H](N)CO

>  <CLASS NAME>
inactive

$$$$

====

PROTOCOL: A CellTox Green Cytotoxicity Assay to monitor cytotoxicity in HEK293 cells - 24 hour (AID 1224875); also: % is scaled to controls: 0 for no effect and ±100 for the full control effect; nearly all actives have a fitted effect of over 45% in size
MEASUREMENT CONDITIONS: CellTox Green fluorescence; series mostly up to 76.8 µM
Inconclusive results are not listed. The source made the active and inactive calls. Calls come from the whole dose curve; as a rule, active = well fitted activation curve with a large enough effect in the repeat runs; inconclusive = weak or mixed curves; inactive = flat fitted curve, though single readings scatter.

>  <COMPOUND>
CC1(C)C2=CCCC(C)(C)[C@]23CC[C@H]1C3

>  <outcome>
inactive

$$$$
>  <COMPOUND>
CCC(C)(O)CCC=C(C)C (stereo not drawn)

>  <outcome>
inactive

$$$$
>  <COMPOUND>
O=C(CCCCCCCCC#CI)Oc1ccccc1

>  <outcome>
inactive

$$$$
>  <COMPOUND>
C=CC(C)(C)CC(=O)OC

>  <outcome>
inactive

$$$$
>  <COMPOUND>
O=S1OCCO1

>  <outcome>
inactive

$$$$
>  <COMPOUND>
Nc1c(I)cc(I)c(C(=O)N(CCC(=O)O)c2ccccc2)c1I

>  <outcome>
inactive

$$$$
>  <COMPOUND>
COC(=O)c1cc(Cl)ccc1NS(=O)(=O)C(F)(F)F

>  <outcome>
inactive

$$$$
>  <COMPOUND>
O=C(O)c1cccc(O)c1

>  <outcome>
inactive

$$$$
>  <COMPOUND>
COCCOC(=O)C1=C(C)NC(C)=C(C(=O)OC/C=C/c2ccccc2)C1c1cccc([N+](=O)[O-])c1 (stereo not drawn)

>  <outcome>
inactive

$$$$
>  <COMPOUND>
CC(C)(C)C(=O)O

>  <outcome>
inactive

$$$$
>  <COMPOUND>
C/C(=N/NC(=O)c1ccncc1)C(=O)O

>  <outcome>
inactive

$$$$
>  <COMPOUND>
O=C(Nc1ccc([N+](=O)[O-])cc1)Nc1ccc([N+](=O)[O-])cc1

>  <outcome>
inactive

$$$$
>  <COMPOUND>
CCCc1c(OCCCOc2ccc(OCC(=O)O)cc2)ccc(C(C)=O)c1O

>  <outcome>
inactive

$$$$

====

PROTOCOL: qHTS assay to test for compound auto fluorescence at 590 nm (red) in HEK293 cells (AID 720679); also: % is scaled to controls: 0 for no effect and ±100 for the full control effect
MEASUREMENT CONDITIONS: red autofluorescence 540/590 nm; series mostly up to 91.3 µM
Activity calls are given as the source filed them. The call rests on the fitted dose curve; in most records, active means well fitted curve in the direction sought with a large enough effect in the repeat runs; inconclusive means weak or mixed curves; inactive means flat fitted curve, though single readings scatter.

>  <MOLECULE>
[O]=[Bi]

>  <fluorescence, % of fluorescent control>
0.261% [at 3.72 µM] (inactive)

$$$$
>  <MOLECULE>
CC(Cl)C(Cl)Cl (centres undefined)

>  <fluorescence, % of fluorescent control>
inactive

$$$$
>  <MOLECULE>
CCc1cccc(N(C)C(N)=Nc2cccc3ccccc23)c1

>  <fluorescence, % of fluorescent control>
inactive

$$$$
>  <MOLECULE>
COc1cc2c(cc1OC)-c1cc(=Nc3c(C)cc(C)cc3C)n(C)c(=O)n1CC2

>  <fluorescence, % of fluorescent control>
inactive

$$$$
>  <MOLECULE>
CCc1c2c(nc3ccc(OC(=O)N4CCC(N5CCCCC5)CC4)cc13)-c1cc3c(c(=O)n1C2)COC(=O)[C@]3(O)CC

>  <fluorescence, % of fluorescent control>
inactive

$$$$
>  <MOLECULE>
C[C@@H]1C[C@H]2[C@@H]3CCC4=CC(=O)C=C[C@]4(C)[C@@]3(F)[C@@H](O)C[C@]2(C)[C@H]1C(=O)CO

>  <fluorescence, % of fluorescent control>
inactive

$$$$
>  <MOLECULE>
CC(=O)[C@H]1CC[C@H]2[C@@H]3C[C@H](C)C4=CC(=O)CC[C@]4(C)[C@H]3[C@@H](O)C[C@]12C

>  <fluorescence, % of fluorescent control>
-0.987% [at 18.6 µM] (inactive)

$$$$
>  <MOLECULE>
O=C(CCCN1CCC(O)(c2ccc(Br)cc2)CC1)c1ccc(F)cc1

>  <fluorescence, % of fluorescent control>
-0.139% [at 18.6 µM] (inactive)

$$$$
>  <MOLECULE>
CCCCC(=O)O[C@]1(C(=O)CO)CC[C@H]2[C@@H]3CCC4=CC(=O)CC[C@]4(C)[C@H]3[C@@H](O)C[C@@]21C

>  <fluorescence, % of fluorescent control>
inactive

$$$$
>  <MOLECULE>
O=c1[nH]c2ccc(S(=O)CCN3CCC(Cc4ccc(F)cc4)CC3)cc2o1 (centres undefined)

>  <fluorescence, % of fluorescent control>
inactive

$$$$
>  <MOLECULE>
CN1CCCN=C1/C=C/c1cccs1

>  <fluorescence, % of fluorescent control>
inactive

$$$$
>  <MOLECULE>
CCCC(=O)O[C@]1(C(=O)COC(=O)CC)CC[C@H]2[C@@H]3CCC4=CC(=O)CC[C@]4(C)[C@H]3[C@@H](O)C[C@@]21C

>  <fluorescence, % of fluorescent control>
inactive

$$$$
>  <MOLECULE>
COc1ccc(CCC(=O)c2c(O)cc(O[C@@H]3O[C@H](CO)[C@@H](O)[C@H](O)[C@H]3O[C@@H]3O[C@@H](C)[C@H](O)[C@@H](O)[C@H]3O)cc2O)cc1O

>  <fluorescence, % of fluorescent control>
inactive

$$$$
>  <MOLECULE>
CNCCCC1c2ccccc2C=Cc2ccccc21

>  <fluorescence, % of fluorescent control>
-0.279% [at 18.6 µM] (inactive)

$$$$
>  <MOLECULE>
NC(=O)Nc1ccc(Cl)c(Cl)c1

>  <fluorescence, % of fluorescent control>
inactive

$$$$
>  <MOLECULE>
CC(=O)OCC(=O)[C@@]12OC(C)(C)O[C@@H]1C[C@H]1[C@@H]3C[C@H](F)C4=CC(=O)C=C[C@]4(C)[C@@]3(F)[C@@H](O)C[C@@]12C

>  <fluorescence, % of fluorescent control>
0.156% [at 18.6 µM] (inactive)

$$$$
>  <MOLECULE>
CC(C)(O)c1ccccc1CC[C@@H](SCC1(CC(=O)O)CC1)c1cccc(/C=C/c2ccc3ccc(Cl)cc3n2)c1

>  <fluorescence, % of fluorescent control>
inactive

$$$$
>  <MOLECULE>
CC(N)CN (centres undefined)

>  <fluorescence, % of fluorescent control>
inactive

$$$$
>  <MOLECULE>
Cc1nc2ccccn2c(=O)c1CCN1CCC(C(=O)c2ccc(F)cc2)CC1

>  <fluorescence, % of fluorescent control>
inactive

$$$$
